- tested.target: human EHMT1 982-1266 (Homo sapiens, UniProt Q9H9B1)
- Sequence (Q9H9B1 982-1266): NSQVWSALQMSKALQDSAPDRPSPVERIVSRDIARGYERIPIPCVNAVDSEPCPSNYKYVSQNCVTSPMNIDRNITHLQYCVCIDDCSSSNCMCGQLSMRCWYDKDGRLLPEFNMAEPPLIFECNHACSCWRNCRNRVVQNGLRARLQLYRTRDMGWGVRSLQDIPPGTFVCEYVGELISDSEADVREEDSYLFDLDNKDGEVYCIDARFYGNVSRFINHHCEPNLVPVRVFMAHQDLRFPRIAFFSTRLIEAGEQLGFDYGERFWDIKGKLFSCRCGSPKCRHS
- protocol.description: EHMT1 enzyme assay on histone peptide substrate (3H-SAM SPA)
- run.parameters: EHMT1 IC50, recombinant human EHMT1 982-1266, histone peptide substrate
Assignment: determine reported IC50 for the given molecules.

Req: May I ask what IC50 has been recorded for [2H]Cc1cc(NC([2H])([2H])[2H])nc(Nc2cc3c(c(C4=CCN(C)CCC4)c2)OCO3)n1 ?
Resp: < 0.1 µM

Req: For CNc1cc(Nc2cc3c(c(C4=CCN(C)CCC4)c2F)OCC3)nc(C)c1F , what is its reported IC50?
Resp: < 0.1 µM

Req: # get_value(readout='IC50', item= CNc1cc(C)nc(Nc2cc3c(c(OCCN4CCCC4)c2)OCC3)n1 )
Resp: 0.1 to 0.5 µM

Req: Given the molecule CNc1cc(C)nc(Nc2cc(OCCCN3CCCC3)c3c(c2)N(Cc2ccccc2)CCO3)n1 , what is its reported IC50?
Resp: 0.1 to 0.5 µM

Req: Which IC50 reading was recorded for the molecule CNc1cc(C)nc(Nc2cc3c(c(C4=CCNCCC4)c2)COC3)n1 ?
Resp: 0.1 to 0.5 µM

Req: What IC50 value was documented for this molecule, CNc1cc(C2CC2)nc(Nc2cc3c(c(C4=CCNCCC4)c2)OCC3)n1 ?
Resp: < 0.1 µM

Req: Any idea what its IC50 is? The molecule is CNc1cc(C(C)C)nc(Nc2cc3c(c(C4=CCN(C)CCC4)c2)OCC3)n1
Resp: 0.1 to 0.5 µM

Req: Return reported IC50; argument: CNc1nc(Nc2cc(OCCCN3CCCC3)c3occc3c2)nc(C)c1F
Resp: > 2 µM

----------
- tested.target: human EHMT2 913-1193 (Homo sapiens, UniProt Q96KQ7)
- Sequence (Q96KQ7 913-1193): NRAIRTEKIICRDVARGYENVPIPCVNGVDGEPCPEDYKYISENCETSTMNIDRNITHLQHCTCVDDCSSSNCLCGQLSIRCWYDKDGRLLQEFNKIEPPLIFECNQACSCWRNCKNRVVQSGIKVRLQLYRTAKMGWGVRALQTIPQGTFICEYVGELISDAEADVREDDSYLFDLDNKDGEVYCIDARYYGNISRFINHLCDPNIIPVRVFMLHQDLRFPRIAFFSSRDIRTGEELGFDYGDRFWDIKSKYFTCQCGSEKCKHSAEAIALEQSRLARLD
- protocol.description: EHMT2 enzyme assay on histone peptide substrate (3H-SAM SPA)
- run.parameters: EHMT2 IC50, recombinant human EHMT2 913-1193, histone peptide substrate
pIC50: −log10 of the molar value.
readout.kind: pIC50

Req: Query: pIC50; subject: CNc1nc(Nc2cc3c(c(C4=CCN(C)CCC4)c2F)OCO3)nc(C)c1F
Resp: 5.70 to 6.30

Req: Endpoint output: pIC50 of CNc1cc(C)nc(Nc2cc(OCCCN3CCCC3)c3oc(=O)[nH]c3c2)n1 . Value?
Resp: < 5.70

Req: Can you look up the measured pIC50 of CNc1nc(Nc2cc3c(c(C4=CCN(C)CCC4)c2)OCC3)nc(C)c1F for me?
Resp: 5.70 to 6.30

Req: Recorded pIC50 of CNc1cc(C)nc(Nc2cc3c(c(C4CCCNCC4)c2)OCO3)n1 (stereo not drawn) , please.
Resp: 5.70 to 6.30

Req: Any idea what its pIC50 is? The compound is [2H]Cc1cc(NC)nc(Nc2cc3c(c(C4=CCNCCC4)c2)OCCC3)n1
Resp: > 7.00

Req: Which pIC50 value is on record for CNc1cc(C)nc(Nc2cc3c(c(C4=CCNCC(O)C4)c2Cl)OCC3)n1 (single isomer, unassigned) [Compound 376] ?
Resp: 6.30 to 7.00

Req: Which measured pIC50 value corresponds to CNc1cc(CC(F)(F)F)nc(Nc2cc3c(c(C4=CCNCCC4)c2)OCC3)c1 ?
Resp: 6.30 to 7.00

Req: Requested read-out: pIC50. Entry: [2H]Cc1nc(Nc2cc3c(c(C4=CCN(C)CCC4)c2F)OCC3)nc(NCC([2H])([2H])[2H])c1F
Resp: 5.70 to 6.30

Req: Value lookup for pIC50; key = CNc1cc(C)nc(Nc2cc3c(c(C4=CCNCCC4)c2C)OCO3)n1
Resp: 6.30 to 7.00

Req: What value of measured pIC50 is listed for COCCNc1cc(C)nc(Nc2cc3c(c(C4=CCN(C)CCC4)c2F)OCC3)n1 ?
Resp: 6.30 to 7.00

Req: Fill in: pIC50 of Cc1cc(NCC2CCCO2)nc(Nc2cc3c(c(C4=CCN(C)CCC4)c2)OCC3)n1 (stereo not drawn) is ___
Resp: 6.30 to 7.00

Req: Given the entry CNc1cc(C)nc(Nc2cc3c(c(C4=CCNC(C)CC4)c2F)OCCC3)n1 (single isomer, unassigned) [Compound 162] , report its measured pIC50.
Resp: 5.70 to 6.30

Req: Looking for the measured pIC50 of [2H]C([2H])([2H])CNc1nc(Nc2cc3c(c(C4=CCN(C)CCC4)c2F)OCC3)nc(C)c1F , can you help?
Resp: 5.70 to 6.30

Req: Can you share its pIC50? I mean this compound: CNc1cc(C)nc(Nc2cc3c(c(C4=CCC(N)CC4)c2F)OCC3)n1 (single isomer, unassigned) [Compound 436]
Resp: < 5.70

Req: So what does the record say about pIC50 for CNc1cc(C)nc(Nc2cc3c(c(N4CCNCC4)c2)OCC3)n1 ?
Resp: < 5.70

Req: # pIC50 lookup, item CNc1cc(C)nc(Nc2cc3c(c([C@H]4CC[C@H](N)CC4)c2)OCC3)n1
Resp: < 5.70

Req: # pIC50 lookup, item CCc1c(C)nc(Nc2cc3c(c(C4=CCN(C)CCC4)c2F)OCC3)nc1NC
Resp: 6.30 to 7.00

Req: If you can, please state the reported pIC50 value of CNc1cc(C)nc(Nc2cc3c(c(C4=CCN(C)CCC4)c2)OCO3)n1 .
Resp: 6.30 to 7.00

Req: Consider the compound shown here: CNc1cc(C)nc(Nc2cc3c(c(C4=CC(C)NCCC4)c2F)OCC3)n1 (stereo not drawn) What is its recorded pIC50?
Resp: 6.30 to 7.00

Req: Returns the measured pIC50 for the input compound. Input: [2H]Cc1nc(Nc2cc3c(c(C4=CCNCCC4)c2)OCO3)nc(NC([2H])([2H])[2H])c1F
Resp: 6.30 to 7.00

Req: Report pIC50 for [2H]Cc1nc(Nc2cc3c(c(C4=CCNCCC4)c2F)OCC3)nc(NC([2H])([2H])[2H])c1F please.
Resp: > 7.00

----------
- tested.target: human EHMT2 913-1193 (Homo sapiens)
- protocol.description: EHMT2 enzyme assay on histone peptide substrate (3H-SAM SPA)
- run.parameters: EHMT2 IC50, recombinant human EHMT2 913-1193, histone peptide substrate
pIC50: −log10 of the molar value.
readout.kind: pIC50

Req: What does the record list as pIC50 for Cc1cc(NCC(F)(F)F)cc(Nc2cc3c(c(C4=CCNCCC4)c2)OCC3)n1 ?
Resp: 5.70 to 6.30

Req: Tell me the measured pIC50 of CCNc1nc(Nc2cc3c(c(C4=CCN(C)CCC4)c2F)OCC3)nc(C)c1F , please.
Resp: 5.70 to 6.30

Req: What value of pIC50 has been reported for the following molecule? CNc1cc(C)nc(Nc2c(F)c3c(c(C4=CCNCCC4)c2F)OCC3)n1
Resp: 6.30 to 7.00

Req: Please report the recorded pIC50 for [2H]C([2H])([2H])Nc1nc(Nc2cc3c(c(C4=CCN(C)CCC4)c2)OCC3)nc(C)c1F .
Resp: 5.70 to 6.30

Req: Reported pIC50 for [2H]C([2H])([2H])Nc1cc(C)nc(Nc2cc3c(c(C4=CCN(C)CCC4)c2F)OCC3)n1 : what is it?
Resp: > 7.00

Req: Could you tell me which pIC50 is on file for CNc1cc(C)nc(Nc2cc3c(c(OCCN4CCCC4)c2)OCC3)n1 ?
Resp: < 5.70

Req: Requested read-out: pIC50. Entry: CNc1cc(C)nc(Nc2cc3c(c(OCCCN4CCCC4)c2)OCC3)n1
Resp: 5.70 to 6.30

Req: Item under review: [2H]C([2H])([2H])Nc1cc(C)nc(Nc2cc3c(c(C4=CCNCCC4)c2)OCCO3)n1 . Reported pIC50?
Resp: > 7.00

Req: Param item = CNc1nc(Nc2cc3c(c(C4=CCN(C)CCC4)c2F)OCC3)nc(C)c1F ; retrieve measured pIC50.
Resp: 5.70 to 6.30

Req: Entry under review: CNc1cc(C)nc(Nc2cc3c(c(C4=CCN(C)CCC4)c2F)OCCC3(F)F)n1 . Reported pIC50?
Resp: 6.30 to 7.00

Req: Need pIC50 of CNc1cc(C)nc(Nc2cc3c(c(C4=CCNCCC4)c2Cl)OCCC3)n1 , thanks.
Resp: > 7.00

Req: Could you tell me which pIC50 is on file for [2H]C([2H])([2H])Nc1nc(Nc2cc3c(c(C4=CCN(C)CCC4)c2F)OCC3)nc(C)c1F ?
Resp: 6.30 to 7.00

Req: Quick check: pIC50 of CNc1cc(C)nc(Nc2cc3c(c(C4=CCNC(C)CC4)c2Cl)OCC3)n1 (single isomer, unassigned) [Compound 374-a] ?
Resp: 5.70 to 6.30

Req: May I ask what pIC50 has been recorded for [2H]Cc1nc(Nc2cc3c(c(C4=CCN(C)CCC4)c2F)OCC3)nc(NC([2H])([2H])[2H])c1F ?
Resp: 6.30 to 7.00

Req: Consider the molecule shown here: [2H]Cc1cc(NC([2H])([2H])[2H])nc(Nc2cc3c(c(C4=CCNCCC4)c2)OCCO3)n1 What is its recorded pIC50?
Resp: > 7.00

Req: # pIC50 lookup, item [2H]Cc1nc(Nc2cc3c(c(C4=CCNCCC4)c2)OCC3)nc(NC([2H])([2H])[2H])c1F
Resp: 6.30 to 7.00

The origin of these recorded values is patent US20240368139A1.
